# measured-target: Rat mGlu2 (Rattus norvegicus)
# Sequence (P31421 19-872): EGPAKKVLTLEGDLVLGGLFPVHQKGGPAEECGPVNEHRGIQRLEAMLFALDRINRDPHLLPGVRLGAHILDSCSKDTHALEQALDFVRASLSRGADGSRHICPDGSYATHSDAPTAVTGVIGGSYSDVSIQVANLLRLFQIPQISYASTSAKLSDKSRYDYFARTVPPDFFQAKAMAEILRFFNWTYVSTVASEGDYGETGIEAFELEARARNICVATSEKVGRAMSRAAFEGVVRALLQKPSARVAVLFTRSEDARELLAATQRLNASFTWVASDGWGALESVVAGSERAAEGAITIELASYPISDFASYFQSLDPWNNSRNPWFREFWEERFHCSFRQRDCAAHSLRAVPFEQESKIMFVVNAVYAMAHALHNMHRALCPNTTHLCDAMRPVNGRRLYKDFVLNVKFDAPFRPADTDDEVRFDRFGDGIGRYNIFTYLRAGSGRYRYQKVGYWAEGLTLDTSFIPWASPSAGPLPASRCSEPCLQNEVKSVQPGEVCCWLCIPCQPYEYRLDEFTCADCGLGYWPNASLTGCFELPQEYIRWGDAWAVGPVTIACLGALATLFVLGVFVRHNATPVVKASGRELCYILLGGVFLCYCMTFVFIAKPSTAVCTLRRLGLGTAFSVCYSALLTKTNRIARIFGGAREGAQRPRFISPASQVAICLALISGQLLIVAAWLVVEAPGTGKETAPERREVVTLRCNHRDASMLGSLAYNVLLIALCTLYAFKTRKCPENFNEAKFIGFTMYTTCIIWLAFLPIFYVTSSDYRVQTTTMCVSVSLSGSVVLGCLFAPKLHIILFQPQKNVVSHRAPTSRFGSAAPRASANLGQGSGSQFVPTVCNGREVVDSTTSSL
# test-protocol: mGlu receptor in vitro assay, thallium flux through GIRK channels, rat mGlu2
# condition-summary: PAM potency with EC20 glutamate
value-kind: EC50 (µM)

molecule	measured-target	EC50, µM
CCCC(=O)c1ccc(OCCCCCCOc2cccc(C(=O)O)c2C)c(C)c1O	Rat mGlu2 (Rattus norvegicus)	0.182
Cc1c(OCCCCNc2cccc(C(=O)O)c2)ccc(C(=O)CC(C)(C)C)c1O	Rat mGlu2 (Rattus norvegicus)	0.128
COc1ccc(C(=O)NC2CC2)cc1-c1cnc(COc2ccc(C(=O)CC(C)(C)C)c(O)c2C)cn1	Rat mGlu2 (Rattus norvegicus)	0.373
Cc1c(OCc2nc(-c3cccc(C(=O)O)c3)no2)ccc(C(=O)CC(C)(C)C)c1O	Rat mGlu2 (Rattus norvegicus)	0.268
COc1ccc(C(=O)O)cc1OCCCCCOc1ccc(C(=O)CC(C)(C)C)c(O)c1C	Rat mGlu2 (Rattus norvegicus)	0.035

(I) CCCC(=O)c1ccc(OCCOCCOc2ccc(C(=O)O)cc2OC)c(C)c1O
(II) COc1c(C(=O)O)cccc1-c1ccc(COc2ccc(C(=O)CC(C)(C)C)c(O)c2C)cc1
(III) COc1ccc(C(=O)O)cc1OCC(C)CCOc1ccc(C(=O)CC(C)(C)C)c(O)c1C (centres unmarked)
(IV) COc1ccc(C(=O)O)cc1OCCCCOc1ccc(C(=O)c2ccccc2)c(O)c1C
(V) CCCC(=O)c1ccc(OCOc2cccc(C(=O)O)c2C)c(C)c1O
Endpoint returns the given molecules ordered by ascending EC50. Form entry: labels listed in requested order.
I, III, IV, II, V
(I: 0.027 µM, III: 0.127 µM, IV: 0.182 µM, II: 0.303 µM, V: 0.663 µM)

* * *

# measured-target: Rat mGlu3 (Rattus norvegicus, UniProt P31422)
# Sequence (P31422 23-879): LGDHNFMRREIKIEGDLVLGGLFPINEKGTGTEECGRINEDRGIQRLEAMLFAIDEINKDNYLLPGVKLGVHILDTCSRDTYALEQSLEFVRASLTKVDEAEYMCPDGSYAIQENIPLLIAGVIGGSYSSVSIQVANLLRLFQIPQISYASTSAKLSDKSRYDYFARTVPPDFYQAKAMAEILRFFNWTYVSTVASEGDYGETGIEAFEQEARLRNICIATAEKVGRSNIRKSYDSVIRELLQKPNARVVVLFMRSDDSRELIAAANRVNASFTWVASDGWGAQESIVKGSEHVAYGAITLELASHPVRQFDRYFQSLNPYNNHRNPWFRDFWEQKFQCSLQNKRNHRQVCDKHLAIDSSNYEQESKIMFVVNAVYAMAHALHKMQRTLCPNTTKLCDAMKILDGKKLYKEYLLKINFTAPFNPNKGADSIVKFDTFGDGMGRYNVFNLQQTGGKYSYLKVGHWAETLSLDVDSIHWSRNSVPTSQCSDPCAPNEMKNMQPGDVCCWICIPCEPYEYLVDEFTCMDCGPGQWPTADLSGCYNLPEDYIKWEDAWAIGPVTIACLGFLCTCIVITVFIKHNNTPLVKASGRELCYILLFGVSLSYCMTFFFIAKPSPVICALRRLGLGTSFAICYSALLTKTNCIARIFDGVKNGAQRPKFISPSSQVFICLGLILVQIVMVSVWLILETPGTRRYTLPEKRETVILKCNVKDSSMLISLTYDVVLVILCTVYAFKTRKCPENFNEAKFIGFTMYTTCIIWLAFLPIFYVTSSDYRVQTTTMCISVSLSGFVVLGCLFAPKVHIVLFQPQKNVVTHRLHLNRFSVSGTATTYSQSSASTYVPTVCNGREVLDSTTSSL
# test-protocol: mGlu receptor in vitro assay (thallium flux through GIRK channels / calcium assay), rat mGlu3
# condition-summary: PAM potency with EC20 glutamate
pEC50: −log10 of the molar value.
value-kind: pEC50

As a guide, the following entries are already answered.
compound	measured-target	pEC50
Cc1c(OCc2cnc(-c3cccc(-c4nsc(=O)[nH]4)c3)cn2)ccc(C(=O)CC(C)(C)C)c1O [compound 125]	Rat mGlu3 (Rattus norvegicus, UniProt P31422)	< 4.52
CCCC(=O)c1ccc(OCCCCCOc2ccc(F)c(C(=O)O)c2)c(C)c1O [Example 48]	Rat mGlu3 (Rattus norvegicus, UniProt P31422)	< 5.00
CCCC(=O)c1ccc(OCCOCCOc2cccc(C(=O)O)c2C)c(C)c1O [Example 7]	Rat mGlu3 (Rattus norvegicus, UniProt P31422)	< 4.52

Please fill in: pEC50 reported for CCCC(=O)c1ccc(OCCCCCOc2ccc(Cl)c(C(=O)O)c2)c(C)c1O [Example 52] = < 4.52

Please fill in: pEC50 reported for CCCC(=O)c1ccc(OCCOCCOc2ccc(C(=O)O)cc2OC)c(C)c1O [Example 5] = < 5.00

Please fill in: pEC50 reported for CCCC(=O)c1ccc(OCCCCOc2ccc(C(=O)O)c(Cl)c2)c(C)c1O [compound 101] = < 4.52

* * *

# measured-target: UniProt:Q14832
# Sequence (Q14832 23-879): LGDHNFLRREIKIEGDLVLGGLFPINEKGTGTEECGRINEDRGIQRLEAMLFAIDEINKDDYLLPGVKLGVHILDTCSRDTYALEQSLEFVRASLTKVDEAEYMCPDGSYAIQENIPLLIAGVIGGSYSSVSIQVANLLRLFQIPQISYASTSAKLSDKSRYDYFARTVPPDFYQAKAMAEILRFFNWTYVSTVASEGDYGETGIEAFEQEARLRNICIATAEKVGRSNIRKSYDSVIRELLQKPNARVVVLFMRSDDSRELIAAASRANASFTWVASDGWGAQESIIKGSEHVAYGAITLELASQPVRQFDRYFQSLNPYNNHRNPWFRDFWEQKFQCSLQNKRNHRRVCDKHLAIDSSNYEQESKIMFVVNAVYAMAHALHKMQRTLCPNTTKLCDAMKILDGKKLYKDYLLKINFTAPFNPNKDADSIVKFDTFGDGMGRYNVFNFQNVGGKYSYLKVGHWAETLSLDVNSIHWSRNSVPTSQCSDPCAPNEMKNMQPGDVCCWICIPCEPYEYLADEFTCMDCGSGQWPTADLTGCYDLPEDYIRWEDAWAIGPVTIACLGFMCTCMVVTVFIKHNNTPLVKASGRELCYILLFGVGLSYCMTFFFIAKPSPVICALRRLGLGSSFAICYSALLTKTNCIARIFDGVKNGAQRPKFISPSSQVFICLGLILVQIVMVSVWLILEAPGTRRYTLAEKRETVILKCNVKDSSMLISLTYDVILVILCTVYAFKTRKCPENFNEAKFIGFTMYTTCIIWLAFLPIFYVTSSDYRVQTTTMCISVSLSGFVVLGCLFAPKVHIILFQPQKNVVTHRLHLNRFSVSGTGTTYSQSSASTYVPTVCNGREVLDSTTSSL
# test-protocol: mGlu receptor in vitro assay, human mGlu3
# Method: Human Embryonic Kidney (HEK-293) cell lines co-expressing rat mGlu receptors 2, 3, 4, 6, 7 or 8 and G protein-coupled inwardly-rectifying potassium (GIRK) channels were grown in Growth Media containing 45% DMEM, 45% F-12, 10% FBS, 20 mM HEPES, 2 mM L-glutamine, antibiotic/antimycotic, non-essential amino acids, 700 μg/mL G418, and 0.6 μg/ml puromycin at 37° C. in the presence of 5% CO2. […] All cell culture reagents were purchased from Invitrogen Corp. (Carlsbad, CA) unless otherwise noted. […]
value-kind: EC50 (nM)

As a guide, the following entries are already answered.
molecule	unit-symbol	EC50
COc1ccc(C(=O)NC2CC2)cc1-c1cnc(COc2ccc(C(=O)CC(C)(C)C)c(O)c2C)cn1 [compound 127]	nM	140
COc1cc(F)c(C(=O)O)cc1-c1cccc(COc2ccc(C(=O)CC(C)(C)C)c(O)c2C)c1 [Example 164]	nM	242

(A) Cc1c(OCc2cnc(-c3ccc(Cl)c(C(=O)O)c3)cn2)ccc(C(=O)CC(C)(C)C)c1O [compound 138]
(B) COc1ccc(C(=O)O)cc1OCCC(C)(C)CCOc1ccc(C(=O)CC(C)(C)C)c(O)c1C [Example 29]
(C) COc1ccc(C(=O)O)cc1OCCCCOc1ccc(C(=O)c2ccc(F)cc2)c(O)c1C [compound 65]
Endpoint returns the given molecules ordered by ascending EC50. Form entry: labels listed in requested order.
A, C, B

Source: patent US20250179000A1
